Test system: KB (human mouth epidermal carcinoma) cell line
MEASUREMENT_NOTES: MTT cytotoxicity assay, KB cells
TEST_PARAMETERS: Homo sapiens, KB, 72 h, read-out: IC50, KB
pIC50: −log10 of the molar value.
Short version: pIC50 at least 6 is Condition met, less is Condition not met.

# input # bool: pIC50 of Cc1c2ccncc2c(C)c2c1[nH]c1ccccc12 [Ellipticine, ellipticine, reference compound] >= 6
# output Condition not met

# input # bool: pIC50 of O=C1OCC2=C1C(c1csc3ccccc13)C1=C(N2)C(=O)c2ccccc2C1=O (stereo not drawn) [Compound 13e] >= 6
# output Condition not met

# input # bool: pIC50 of O=C1OCC2=C1C(c1ccco1)C1=C(N2)C(=O)c2ccccc2C1=O (stereo not drawn) [Compound 13c] >= 6
# output Condition not met

# input # bool: pIC50 of COc1cc(C2C3=C(COC3=O)NC3=C2C(=O)c2ccccc2C3=O)ccn1 (stereo not drawn) [Compound 13k] >= 6
# output Condition met

All figures here come from paper PMC10772362.
